Where do these numbers come from? They come from PubChem BioAssay (NCI).

system: LOX IMVI melanoma; assay: NCI-60 one-dose screen, 48 h; conditions: 10 µM unless noted
This is part of a sample that, as a whole, favours compounds with a hit. Of some 83,000 tested, about 20% had one in any assay. The source made the active and inactive calls. The calls were made as follows: active = growth percent below 10; inactive = the rest.
Just give me one of these, please: active, inactive

[[record]]
compound = "O=C1CCc2c(sc3[nH]c(=S)n(-c4ccc(OC(F)(F)F)cc4)c(=O)c23)C1"
label_class = "inactive"

[[record]]
compound = "CC/C=C\\C[C@H](O)C/C=C1/C(=O)C=C[C@@H]1C/C=C\\CCCCO"
label_class = "active"

[[record]]
compound = "COC(=O)[C@]12CC[C@@H](C)[C@H](C)[C@@H]1C1=CC[C@@H]3[C@@]4(C)C(C=O)=C[C@@](C)(COC(=O)/C=C/c5ccccc5)[C@@H]4[C@H](O)C[C@@]3(C)[C@]1(C)CC2"
label_class = "active"


As a next step, examine the compound that follows.
Would you mind telling me which call this test gave O=C(NC(CSSCC(NC(=O)c1ccccc1)C(=O)O)C(=O)O)c1ccccc1 (centres undefined) ? inactive

====

test system: TK-10 renal; assay: NCI-60 one-dose screen, 48 h; conditions: 10 µM unless noted
Compounds without any hit were thinned out: in the full panel of roughly 83,000, 20% have a hit. Activity calls are given as the source filed them. Rule for the calls: active = growth percent below 10; inactive = the rest.
Just give me one of these, please: active, inactive

Example entries and their recorded answers appear below.
[[record]]
molecule = "C=CCn1c(C)nc2cc(Nc3nc(N4CCCC4)nc4ccccc34)ccc21"
label_class = "inactive"

[[record]]
molecule = "COc1cccc2c1C(=O)c1c(O)c3c(c(O)c1C2=O)CC(O)(/C(C)=N/NC(=O)CCCCC(=O)N/N=C(\\C)C1(O)Cc2c(O)c4c(c(O)c2C(OC2CC(N)C(O)C(C)O2)C1)C(=O)c1c(OC)cccc1C4=O)CC3OC1CC(N)C(O)C(C)O1 (stereo not drawn)"
label_class = "active"

[[record]]
molecule = "COc1ccc(C2CC(c3cccc(OC)c3)=NN2C(=O)c2cc(OC)c(OC)c(OC)c2)cc1 (stereo not drawn)"
label_class = "inactive"

[[record]]
molecule = "CC(=O)N1N=C(c2ccc(Nc3nc(Nc4ccc(F)cc4)nc(Nc4ccc(F)cc4)n3)cc2)CC1c1cccc([N+](=O)[O-])c1 (stereo not drawn)"
label_class = "inactive"

[[record]]
molecule = "O=C1OC(c2nc3ccccc3s2)=C/C1=C\\c1ccc(O)cc1"
label_class = "inactive"


Would you mind telling me which call this test gave NCCCNc1nc2ccccc2c2c(=O)c3cccc(Cl)c3sc12 ? inactive

Would you mind telling me which call this test gave O=c1cc(-c2ccc(Cl)cc2)[nH]c2ccccc12 ? inactive

Would you mind telling me which call this test gave N#Cc1c(-c2cccc(Cl)c2)cc(-c2cccc(F)c2)[nH]c1=O ? inactive

====

System: SF-539 CNS
Assay: NCI-60 one-dose screen, 48 h
Conditions: 10 µM unless noted
Method: Cells are grown in 96 well plates and exposed to the test compound for 48 hours. Compounds are tested at a single concentration, which is 10^-5 M for most compounds. The reported endpoint is percent growth (GI% or GIPRCNT), where numbers from 0 - 100% represent growth inhibition, and numbers from -100% - 0 represent cell death. For example, a value of 40 represents 60% growth inhibition. A value of 0 means no net growth occurred over the course of the experiment. […]
About 83,000 compounds went through this panel and 20% of them were active in at least one assay; those are over-represented in the sample as a whole. The source made the active and inactive calls. The calls were made as follows: active = growth percent below 10; inactive = the rest.
Just give me one of these, please: T for active, F for inactive

Example entries and their recorded answers appear below.
[[record]]
compound = "S=C(Cc1ccc2c(c1)CCCC2)N1CCOCC1"
assayed_system = "SF-539 CNS"
label_class = "F"

[[record]]
compound = "O=C(Cc1ccc(F)c(F)c1)Nc1cc(C2(C(F)(F)F)CC2)nn1Cc1ccccc1"
assayed_system = "SF-539 CNS"
label_class = "F"

[[record]]
compound = "Cc1ccc(S(=O)(=O)NCC[C@@H]2C[C@H]2c2cc3ccccc3s2)cc1"
assayed_system = "SF-539 CNS"
label_class = "F"

[[record]]
compound = "COc1ccc(-c2cc(-c3cc(OC)c(OC)c(OC)c3)c(C#N)c(N3CCOCC3)n2)cc1O"
assayed_system = "SF-539 CNS"
label_class = "F"

[[record]]
compound = "N#Cc1nc(C#N)c(Sc2ccccc2)c(Sc2ccccc2)c1Sc1ccccc1"
assayed_system = "SF-539 CNS"
label_class = "T"


Would you mind telling me which call this test gave CCOc1c(C#N)nnc2c(C#N)c(NC(=O)c3ccccc3)nn12 ? F

====

test system: ACHN renal; assay: NCI-60 one-dose screen, 48 h; conditions: 10 µM unless noted
This is part of a sample that, as a whole, favours compounds with a hit. Of some 83,000 tested, about 20% had one in any assay. The source made the active and inactive calls. The calls were made as follows: active = growth percent below 10; inactive = the rest.
Just give me one of these, please: active, inactive

[[record]]
compound = "Cc1c(C)c2c(c(C)c1OCC(=O)O)CC[C@@](C)(CCC[C@@H](C)CCC[C@@H](C)CCCC(C)C)O2"
label_class = "active"


Would you mind telling me which call this test gave O=c1cc(-c2ccc(Cl)cc2)[nH]c2ccccc12 ? inactive

Would you mind telling me which call this test gave COC(=O)[C@H](CSC)N(C)C(=O)[C@@H]1CSSC[C@@H](NC(=O)c2nc3ccccc3cc2O)C(=O)NCC(=O)N1C ? inactive

====

# maps each entry to its growth
tested on: SF-268 CNS; experiment: NCI-60 one-dose screen, 48 h (100 = growth as untreated, 0 = no growth, -100 = all killed); conditions: 10 µM unless noted
This is part of a sample that, as a whole, favours compounds with a hit. Of some 83,000 tested, about 20% had one in any assay.
Supply the numeric figure in %, leaving out any unit text.

Solved entries (count: 4):
[[record]]
smiles_code = "COc1ccc(-c2csc(C3=C(O)CN(CCCN4CCCC4=O)C3=N)n2)cc1OC"
endpoint_value = 121

[[record]]
smiles_code = "Fc1c[c-]c(-c2ccccn2)c(F)c1.[CH3-].[Pt+2].c1ccc(P(C[PH+](c2ccccc2)c2ccccc2)c2ccccc2)cc1"
endpoint_value = 16.9

[[record]]
smiles_code = "Cc1ccc(-c2cc(-c3ccccc3C)[nH]c(=O)c2C#N)s1"
endpoint_value = 95.8

[[record]]
smiles_code = "COc1cccc(C(=O)NCCCNc2cc(-c3cn(-c4ccccc4)nc3-c3cccc(OC)c3)ccn2)c1"
endpoint_value = 63.9


growth for COc1cc(/C=C/C(=O)c2c(C)nc3ccccc3c2C)ccc1OCCCN1CCN(C(=O)c2ccco2)CC1 ? 87.4

====

tested on: SK-OV-3 ovarian; assay: NCI-60 one-dose screen, 48 h (100 = growth as untreated, 0 = no growth, -100 = all killed); conditions: 10 µM unless noted
This is part of a sample that, as a whole, favours compounds with a hit. Of some 83,000 tested, about 20% had one in any assay.
experimental endpoint: growth (%)
Supply the numeric figure in %, leaving out any unit text.

Solved entries (count: 5):
[[record]]
compound = "O=c1oc2ccccc2c(Cl)c1Cl"
assayed_system = "SK-OV-3 ovarian"
endpoint_value = 94.7

[[record]]
compound = "Cc1ccc(-c2cc(-c3ccccc3C)[nH]c(=O)c2C#N)s1"
assayed_system = "SK-OV-3 ovarian"
endpoint_value = 111

[[record]]
compound = "COC(=O)c1c2c(c[n+]([O-])c1C)C(=O)C=CC2=O"
assayed_system = "SK-OV-3 ovarian"
endpoint_value = 97

[[record]]
compound = "O=C(N=c1oc2ccccc2cc1-c1cc2ccccc2[nH]1)c1ccc(Cl)cc1"
assayed_system = "SK-OV-3 ovarian"
endpoint_value = 57.3

[[record]]
compound = "O=c1c2c3c(sc2nc(N/N=C/c2ccc(Br)cc2)n1Cc1ccccc1)CCCC3"
assayed_system = "SK-OV-3 ovarian"
endpoint_value = 81.7


growth for N=C(N)c1ccc(-c2ccc(-c3cncc4ccccc34)s2)s1 ? 64.4

growth for CCOC(=O)/C=C/c1cc2cc(-c3csc4ccccc34)ccc2[nH]1 ? 132

growth for COCCN(C(=O)c1ccc(F)cc1F)c1c(N)n(Cc2ccccc2)c(=O)[nH]c1=O ? 111

growth for Cc1cc(O)c(C2=NN(c3ccc(S(N)(=O)=O)cc3)C(c3ccccc3Cl)C2)cc1Cl (stereo not given) ? 44.5

growth for CCCCCCCC/C=C\CCCCCCCCOc1ccccc1CC(=O)NCC[N+](C)(C)C ? 81.9

====

system: SW-620 colon; assay: NCI-60 one-dose screen, 48 h (100 = growth as untreated, 0 = no growth, -100 = all killed); conditions: 10 µM unless noted
About 83,000 compounds went through this panel and 20% of them were active in at least one assay; those are over-represented in the sample as a whole. Activity calls are given as the source filed them. The calls were made as follows: active = growth percent below 10; inactive = the rest.
experimental endpoint: growth

[[record]]
compound = "CCCCC1CCCCN1C(=O)OCC (centres undefined)"
endpoint_value = "106% (inactive)"

[[record]]
compound = "COc1cc(/C=C/C(=O)N2CCN(C(=O)c3cc(OC)c(OC)c(OC)c3)CC2)ccc1OCCCN1C(=O)c2cccc3cccc(c23)C1=O"
endpoint_value = "100% (inactive)"

[[record]]
compound = "O=c1cc(-c2ccc(Cl)cc2)[nH]c2ccccc12"
endpoint_value = "56.9% (inactive)"

[[record]]
compound = "CN1CCN(C(=O)c2c3c(n4ccccc24)C(=O)c2ncccc2C3=O)CC1"
endpoint_value = "37.6% (inactive)"

[[record]]
compound = "COc1cccc(-c2nn(-c3ccccc3)cc2-c2ccnc(NCCCNC(=O)Nc3ccc(Cl)c(Cl)c3)c2)c1"
endpoint_value = "12% (inactive)"

[[record]]
compound = "Cc1ccccc1NC(=O)N/C(N)=N/c1nc(C)c(C)s1"
endpoint_value = "25% (inactive)"

[[record]]
compound = "CCOC(=O)c1csc(NC(=O)COc2cccc(/C=C3\\Oc4cc(OC)ccc4C3=O)c2)n1"
endpoint_value = "108% (inactive)"

[[record]]
compound = "Cc1ccc(NS(=O)(=O)c2ccc3c(c2)C2OCCC2C(c2ccc(C(=O)C(C)C)cc2)N3)cc1C (centres undefined)"
endpoint_value = "51.4% (inactive)"

[[record]]
compound = "O=[N+]([O-])c1ccc(Sc2cccc[n+]2[O-])c2nonc12"
endpoint_value = "23.5% (inactive)"

[[record]]
compound = "COC(=O)[C@]12CC[C@@H](C)[C@H](C)[C@@H]1C1=CC[C@@H]3[C@@]4(C)C(C=O)=C[C@@](C)(COC(=O)c5ccco5)[C@@H]4C(=O)C[C@@]3(C)[C@]1(C)CC2"
endpoint_value = "31.4% (inactive)"


growth for CCN(CC)CCCC(C)Nc1c2ccc(Cl)cc2nc2ccc(O)cc12 (centres undefined) ? 24.5% (inactive)

growth for N#C/C(=C\c1ccc(-c2ccccc2F)o1)c1nc(-c2ccco2)cs1 ? 96.1% (inactive)

growth for Cc1cc(O)c(C2=NN(c3ccc(S(N)(=O)=O)cc3)C(c3ccccc3Cl)C2)cc1Cl (centres undefined) ? -27.4% (active)

growth for NC(=S)N/N=C/Cc1ccccc1 ? 102% (inactive)

growth for COC(=O)c1c2c(c(C)[n+]([O-])c1C)C(=O)C(NCc1ccc(F)cc1)=CC2=O ? 6.37% (active)

growth for CCCCN(CCCC)CC(C)(C)C(O)c1ccc(OC)c2ccccc12 (centres undefined) ? 33.4% (inactive)

growth for CC(=O)[C@@H]1CC[C@]2(COS(=O)(=O)c3ccc(C)cc3)CC[C@]3(C)[C@H](CC[C@@H]4[C@@]5(C)CCCNC(C)(C)[C@@H]5CC[C@]43C)[C@@H]12 ? 9.71% (active)

growth for Cc1cc(Cl)nc(NCc2cc(Nc3ccnc4cc(Cl)ccc34)ccc2F)n1 ? 43.9% (inactive)

growth for O=C(Nc1ccccc1)Nc1cccc(Oc2nnc(Cl)c3ccccc23)c1 ? 73.4% (inactive)
